- cond: in benzene, 283.15 K
metric-name: solubility (mole fraction)

- O=[N+]([O-])c1cc[nH]n1: 0.00052

---

- cond: in isopropyl acetate, 308.15 K
metric-name: solubility (mole fraction)

• O=[N+]([O-])c1cc[nH]n1 = 0.00695

---

- cond: in benzene, 303.15 K
metric-name: solubility (mole fraction)

• O=[N+]([O-])c1cc[nH]n1 = 0.00139

---

- cond: in methyl acetate, 308.15 K
metric-name: solubility (mole fraction)

* O=[N+]([O-])c1cc[nH]n1 | 0.0209

---

- cond: in ethyl acetate, 323.15 K
metric-name: solubility (mole fraction)

• O=[N+]([O-])c1cc[nH]n1 = 0.0282
